Data origin: patent US20080262228A1

assay: In vivo metabolism of [14C]COMPOUND I in Sprague-Dawley rats, single oral 5 mg/kg dose; parameters: species or system rat; details: Sprague-Dawley, rat; female rats, 3 hr, 5 mg/kg oral; mean brain radioactivity x percentage of COMPOUND I in pooled sample; read-out: Brain COMPOUND I Concentrations
test-readout: concentration at 3 hr (ng/g)
Your answer should be a plain number; it is taken to be in ng/g.

### Prompt Entry COc1cc(N2CCN(C3CCN(c4ccc(F)c5cccnc45)CC3)CC2)c2ncccc2c1 : reported concentration at 3 hr = ?
### Response 34.7

---

test: in vitro; settings: male, Sprague-Dawley, rat, microsomes
test-readout: microsomal CLint at 1 μM

### Prompt So what's the measured microsomal CLint at 1 μM for this one? COc1cc(N2CCN(C3CCN(c4ccc(F)c5cccnc45)CC3)CC2)c2ncccc2c1 [COMPOUND I]
### Response 332 µL/min/mg
